Molecular target: T1, Human recombinant CD5L protein (Sino Biological, Catalog Number 10791-H08H) (human, UniProt O43866 20-347)
T1 construct: Bought protein; also called human CD5L; CD5L-His; not shown: 6xHIS-tag
T1 sequence (looked up): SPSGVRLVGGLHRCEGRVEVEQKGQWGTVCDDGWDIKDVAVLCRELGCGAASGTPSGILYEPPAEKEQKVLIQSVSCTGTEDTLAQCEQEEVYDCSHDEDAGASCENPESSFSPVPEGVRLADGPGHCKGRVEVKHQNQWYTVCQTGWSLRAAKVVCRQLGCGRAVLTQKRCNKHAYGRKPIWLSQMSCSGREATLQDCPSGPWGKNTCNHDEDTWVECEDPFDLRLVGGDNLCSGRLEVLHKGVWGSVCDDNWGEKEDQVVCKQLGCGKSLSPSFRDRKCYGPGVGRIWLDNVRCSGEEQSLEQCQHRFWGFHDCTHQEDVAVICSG
Experiment: titration ELISA, human CD5L coated on plate
Form field: EC50 (one value per entry).
Reply numerically in µg/mL, unit not repeated.

binder | EC50, µg/mL
R-40 (antibody, V domains shown) VH: QSVKESGGRLVKPDETLTITCTVSGIDLSRYSIQWVRQAPGGGLQWIGVMSIGSSAYYANWAKGRFTISKTSSTTVDLTMTSLTAADTATYFCARSNLYRGAFDPWGPGTLVTISS VL: ELVMTQTPASVEAAVGGTVTIKCQSSESVYKNNYLSWYQLKPGQPPKLLFYSASTLASRVPSRFSGSGSGTQFTLTISDLECDDAATYYCAGYYGSSSVDRYTFGGGTEVEIK | 0.21

Proceeding to the next binder to report its EC50.
# lookup: EC50 of R-39 (antibody, V domains shown) VH: QSLEESGGRLVTPGGSLTLTCTVSGIDLSSYTMGWVRQAPGKGLEWIGVIAINGGTVYASWAKGRFTISKTSTTVDLKMTSPTPEDTATYFCARGAGKTWSSFNLWGQGTLVTISS VL: ELVLTQTPASVSEPVGGTVTIKCQASQSIGSNLAWYQQKPGQPPKLLIYRASTLESGVPSRFSGSGSGTEFTLTISDLECADAATYYCQSYYGSSTNAFGGGTEVVVK
0.246

Values were extracted from patent US20240383999A1.
